# Tested on: EKVX NSCLC
# Assay Overview: NCI tumour cell line growth inhibition, 48 h
Quantity: TGI

# lookup: TGI of COc1cc(-c2nc(SC)nc3c2CCc2ccccc2-3)cc(OC)c1OC
92.8 µM

Entry O=C1CC2OCC=C3CN4CCC5(C(=O)O)C(N1)C2C3CC45 (centres undefined) : reported TGI = ?
> 100 µM

For O=NNc1c[nH]c(=O)[nH]c1=O , what is its reported TGI?
> 100 µM

Would you mind telling me what TGI value was observed for Cc1c2ccccc2c(C)n2c1nc1cc(Cl)c(Cl)cc12 ?
> 100 µM

Please report the recorded TGI for COC(=O)[C@@H](C)C[C@H](Cc1ccccc1)NC(=O)c1csc([C@@H](C[C@H](C(C)C)N(C)C(=O)[C@@H](NC(=O)[C@H]2CCCCN2C)C(C(F)(F)F)C(F)(F)F)OC(C)=O)n1 .
> 16.7 µM

Name the recorded TGI for CC1OC(=O)N2CCC=CC12 (centres undefined) .
> 100 µM

###

# Test system: SF-295 CNS
# Assay Overview: NCI tumour cell line growth inhibition, 48 h
Quantity: TGI

Worked cases, answers included:
{"Compound": "CN1C/C(=C\\c2cccs2)C(=O)/C(=C/c2cccs2)C1", "TGI": "> 100 µM"}
{"Compound": "C[C@H]1CCC2C(OC(=O)[C@@H]2CN(C)C)[C@]2(C)C(=O)C=CC12O (some centres undefined)", "TGI": "31.1 µM"}
{"Compound": "CC(C)OP(=O)(OC(C)C)/C(C#N)=C/c1c[nH]c2ccccc12", "TGI": "> 100 µM"}

Looking for the measured TGI of CS(=O)(=O)CCNCc1ccoc1-c1ccc2ncnc(Nc3ccc(OCc4ccccc4)cc3)c2c1 , can you help?
> 25 µM

###

Below: a set of entries, each annotated with reported GI50.
# Test system: TK-10 renal
# Assay Overview: NCI tumour cell line growth inhibition, 48 h

Below are worked cases with known answers.
{"Compound": "COc1ccc(S(=O)(=O)Nc2cc(Sc3cccc4cccnc34)c(O)c3ccccc23)cc1", "GI50": "2.82 µM"}
{"Compound": "c1ccc(-c2cc3n4c(-c5ccccc5)nn(-c5ccccc5)c4cnc-3n2)cc1", "GI50": "19.3 µM"}
{"Compound": "Cc1cn2cc(-c3ccc4c(c3)CC(=O)N4)nc2s1", "GI50": "> 100 µM"}
{"Compound": "CC(C)(C)CC(C)(C)NCC(O)COc1ccc(C(C)(C)c2ccc(OCC(O)CNC(C)(C)CC(C)(C)C)cc2)cc1 (stereo not given)", "GI50": "1.75 µM"}

Let's switch to this compound now.
Entry O=C(N/N=C/c1ccc(N(CCCl)CCCl)cc1)c1ccc(C(=O)N/N=C/c2ccc(N(CCCl)CCCl)cc2)cc1 has what GI50?
> 100 µM

###

# Test system: M14 melanoma
# Assay Overview: NCI tumour cell line growth inhibition, 48 h
Quantity: TGI

{"Compound": "O=C1C(=Cc2ccc(F)cc2)C(=O)c2ccccc21", "Endpoint Result": "> 100 µM"}
{"Compound": "C[C@@H](C[C@H](CCO)c1ccccc1)c1ccc2ccccc2c1", "Endpoint Result": "2.84 µM"}
{"Compound": "O=S(=O)(Nc1ccc(Cl)c(Cl)c1)c1ccc(-c2cnc(C3CC3)o2)cc1", "Endpoint Result": "13.1 µM"}
{"Compound": "NNS(=O)(=O)c1ccc(/C=C2\\NC(=O)NC2=O)cc1", "Endpoint Result": "> 100 µM"}
{"Compound": "N=C(N)c1ccc(-c2ccc(-c3ccc(Cl)cc3Cl)s2)nc1", "Endpoint Result": "3.63 µM"}
{"Compound": "COC1CC(n2cc(F)c(N)nc2=O)OC1CO (stereo unspecified)", "Endpoint Result": "> 100 µM"}
{"Compound": "COc1ccc(F)cc1-c1ccnc2[nH]c(C3=CCN(C4CCC(CC(=O)O)CC4)CC3)cc12 (stereo unspecified)", "Endpoint Result": "1.93 µM"}
{"Compound": "O=C1c2cc3ncsc3cc2C(=O)c2c(O)ccc(O)c21", "Endpoint Result": "> 100 µM"}
{"Compound": "COc1ccc2c(c1)[nH]c1c3ccc(OC)cc3oc(=O)c21", "Endpoint Result": "> 100 µM"}
{"Compound": "CCOC(=O)C1CCCN1C(=O)c1ccccc1Cl (stereo unspecified)", "Endpoint Result": "> 100 µM"}

Could you now consider this next compound?
Reported TGI for OC(CCl)CN1CC[N+]2(CC1)CC[N+]1(CCN(CC(O)CCl)CC1)CC2 (stereo unspecified) : what is it?
> 50 µM

###

# Tested on: SF-268 CNS
# Assay Overview: NCI tumour cell line growth inhibition, 48 h; in the data active means GI50 below about 0.43 µM; inactive means the rest
Returns: one label drawn from 1 for active, 0 for inactive

{"Compound": "CNC(=O)c1cc(-c2ccc(F)cc2)cc(-c2ccc(S(=O)(=O)N3CCCC3)cc2)c1N", "Assayed Target": "SF-268 CNS", "Class Assignment": 0}
{"Compound": "CCOC(=O)N(O)c1ccc(/C=C/c2ccccc2)cc1", "Assayed Target": "SF-268 CNS", "Class Assignment": 0}
{"Compound": "COc1ccc(F)cc1-c1ccnc2[nH]c(C3=CCN(C4CCC(CC(=O)O)CC4)CC3)cc12 (stereo not given)", "Assayed Target": "SF-268 CNS", "Class Assignment": 1}
{"Compound": "COc1cc2c(=O)n(CC3CCCCC3)c3c4cc[nH]c4ncc3c2cc1OC", "Assayed Target": "SF-268 CNS", "Class Assignment": 0}

# next compound below
# outcome recorded in this test, key = CC1=C(SCCC(=O)OC(C[Se]C2=C(C)C(=O)c3ccccc3C2=O)C(=O)NC(C)(C)C)C(=O)c2ccccc2C1=O (stereo not given)
0

###

# Test system: SK-MEL-28 melanoma
# Assay Overview: NCI tumour cell line growth inhibition, 48 h
Quantity: GI50

See these solved cases before continuing.
{"Given Smiles": "CCOC(=O)N(O)c1ccc(/C=C/c2ccccc2)cc1", "GI50": "17.6 µM"}
{"Given Smiles": "CCCCCCCCc1cc(O)ccc1O", "GI50": "17.4 µM"}
{"Given Smiles": "CC[C@@H](C(=O)[C@@H](C)[C@@H](O)[C@H](C)[C@@H]1O[C@@H]([C@@H](CC)C(=O)O)CC[C@@H]1C)[C@H]1O[C@]2(C=C[C@@H](O)[C@]3(CC[C@@](C)([C@H]4CC[C@](O)(CC)[C@H](C)O4)O3)O2)[C@H](C)C[C@@H]1C", "GI50": "1.14 µM"}

Here is the next item to consider.
Recorded GI50 for CC(=O)[O][Hg][c]1s[c]([Hg][O]C(C)=O)[c]([Hg][O]C(C)=O)[c]1[Hg][O]C(C)=O with SK-MEL-28 melanoma, please?
1.18 µM

###

# Test system: HOP-92 NSCLC
# Assay Overview: NCI tumour cell line growth inhibition, 48 h
Items are presented alongside their recorded TGI.

Worked cases, answers included:
{"Compound": "C[C@H]1CC[C@@H]2[C@@H](C)[C@H]3[C@H](C[C@H]4[C@@H]5CC=C6C[C@@H](O)CC[C@]6(C)[C@H]5CC[C@]34C)N2C1", "TGI": "58.3 µM"}
{"Compound": "c1ccc(-c2cc3n4c(-c5ccccc5)nn(-c5ccccc5)c4cnc-3n2)cc1", "TGI": "> 50 µM"}

Okay, next one:
Consider the compound CC(C)(C)OC(=O)NNCC(O)COc1ccccc1 (configuration not stated) and give its measured TGI.
> 100 µM

###

# Tested on: M14 melanoma
# Assay Overview: NCI tumour cell line growth inhibition, 48 h
Each entry below carries its reported TGI.

Consider the reported TGI for these compounds:
{"Compound": "CCCCCC/C(CC(=O)CCC(=O)NCCc1ccccc1)=N\\Nc1ccc([N+](=O)[O-])cc1[N+](=O)[O-]", "TGI": "> 100 µM"}
{"Compound": "CSc1nc(-c2ccccc2)nc(=[N+]2CCOCC2)s1", "TGI": "> 100 µM"}
{"Compound": "CCOC(=O)C(=O)Nc1nc2ccc(C)cc2s1", "TGI": "> 100 µM"}
{"Compound": "CCC(C)N1CN(c2ccccc2)C2(CCN(CCCC3(c4ccc(F)cc4)OCCO3)CC2)C1=O (stereo unspecified)", "TGI": "> 35.7 µM"}
{"Compound": "CC1/C(=N/O)CC(c2ccccc2)N(N=O)C1c1ccccc1 (stereo unspecified)", "TGI": "> 100 µM"}

Moving on to another compound below.
Given the entry C#C[C@@H](CCCC)OC(=O)N[C@H](C)c1ccccc1 , report its measured TGI.
> 100 µM

###

Form field: TGI (one value per entry).
# System: HL-60(TB) leukemia
# Assay Overview: NCI tumour cell line growth inhibition, 48 h

{"Compound": "Cc1c(C2CCSc3ccccc3N2)sc2ccccc12 (stereo not drawn)", "Assayed Target": "HL-60(TB) leukemia", "Quantity": "TGI", "Endpoint Result": "> 100 µM"}
{"Compound": "COc1ccc(/C=C2/CSC/C(=C/c3ccc(OC)c(OC)c3)C2=O)cc1OC", "Assayed Target": "HL-60(TB) leukemia", "Quantity": "TGI", "Endpoint Result": "> 100 µM"}

If you can, please state the reported TGI value of COc1ccc(C2NC(N)=C(C#N)C3=C2C(C)CCC3)cc1OC (stereo not drawn) .
> 100 µM

All figures here come from PubChem BioAssay (NCI).
